Please respond with reported MIC for every item in the list.
Tested on: Enterococcus faecalis
Test: In-vitro minimum inhibitory concentration against the growth of Streptococcus faecalis
Type: functional

Completed entries (count: 3):
INSERT INTO measurements (chemical_smiles, result) VALUES
  ('CNC(=O)c1[nH]nc2c1C(=O)c1ccccc1C2=O', '> 50 µg/mL'),
  ('O=C(NNc1ccc([N+](=O)[O-])cc1[N+](=O)[O-])c1[nH]nc2c(O)c3ccccc3c(O)c12', '> 50 µg/mL'),
  ('CCCCNC(=O)c1[nH]nc2c1C(=O)c1ccccc1C2=O', '> 50 µg/mL');

Give one value of MIC per listed compound.
1. O=C1c2ccccc2C(=O)c2c1n[nH]c2C(=O)NNc1ccccc1
2. NNC(=O)c1[nH]nc2c1C(=O)c1ccccc1C2=O

1: 25 µg/mL; 2: > 50 µg/mL

# map each compound to its MIC
1. NNC(=O)c1[nH]nc2c(O)c3ccccc3c(O)c12
2. CCOC(=O)c1[nH]nc2c1C(=O)c1ccccc1C2=O
3. O=C1c2ccccc2C(=O)c2c1n[nH]c2C(=O)NCCO
4. C=CCNC(=O)c1[nH]nc2c1C(=O)c1ccccc1C2=O
5. CCOC(=O)c1[nH]nc2c(O)c3ccccc3c(O)c12

1: > 50 µg/mL; 2: 12.5 µg/mL; 3: > 50 µg/mL; 4: > 50 µg/mL; 5: 25 µg/mL
